Hey, just so you know, these numbers are from paper PMC11855827.

Percentage of motility inhibition 0 h: recorded values
# Tested on: C. elegans
# test-context: Table S2, C. elegans SS assay, 110 μM, 0 h, averages of 4 data points
property-label: Percentage of motility inhibition 0 h (%)

1. CC(=O)O[C@@H]1CC[C@@]2(C)[C@@H](CC[C@]3(C)[C@@H]2CC=C2[C@@H]4[C@@H](C)[C@H](C)CC[C@]4(C)CC[C@]23C)[C@@]1(C)C(=O)O :: 15
2. Nc1ccc(S(=O)(=O)Nc2cncc(Cl)n2)cc1 :: 3
3. CC(C)(C)NC(=O)[C@@H]1C[C@@H]2CCCC[C@@H]2CN1C[C@@H](O)[C@H](Cc1ccccc1)NC(=O)[C@H](CC(N)=O)NC(=O)c1ccc2ccccc2n1.CS(=O)(=O)O [Saquinavir (Mesylate)] :: 0
4. CC(C)=CCC[C@](C)(O)[C@H]1CC[C@]2(C)[C@@H]1[C@H](O)C[C@@H]1[C@@]3(C)C[C@@H](O)[C@H](O[C@@H]4O[C@H](CO)[C@@H](O)[C@H](O)[C@H]4O[C@@H]4O[C@H](CO)[C@@H](O)[C@H](O)[C@H]4O)C(C)(C)[C@@H]3CC[C@]12C [Gypenoside L] :: 22
5. C=C[C@H]1[C@H](O[C@@H]2O[C@H](CO)[C@@H](O)[C@H](O)[C@H]2OC(=O)c2c(O)cc(O)cc2-c2cccc(O)c2)OC=C2C(=O)OCC[C@]21O :: 0

----------
# System: C. elegans
# test-context: Table S2, C. elegans SS assay, 110 μM, 0 h, averages of 4 data points
Rule: TRUE for Percentage of motility inhibition 0 h not less than 10%, FALSE for anything less.

1. CC1(C)[C@@H](O[C@@H]2OC[C@H](O[C@@H]3O[C@H](CO)[C@@H](O)[C@H](O)[C@H]3O[C@@H]3OC[C@@H](O)[C@H](O)[C@H]3O)[C@H](O)[C@H]2O[C@@H]2O[C@H](CO)[C@@H](O)[C@H](O)[C@H]2O)CC[C@]2(C)[C@H]3CC[C@]45OC[C@@]6(CC[C@](C)(C=O)C[C@H]64)[C@H](O)C[C@@]5(C)[C@]3(C)CC[C@@H]12 [Ardisiacrispin A] :: TRUE
2. O=c1cc(-c2ccc(O)cc2)oc2c([C@@H]3O[C@H](CO)[C@@H](O)[C@H](O)[C@H]3O)c(O)c([C@@H]3OC[C@H](O)[C@H](O)[C@H]3O)c(O)c12 [Isoschaftoside] :: FALSE
3. C[C@@H]1O[C@@H](OC[C@H]2O[C@@H](Oc3c(-c4ccc(O)c(O)c4)oc4cc(O)cc(O)c4c3=O)[C@H](O)[C@@H](O)[C@@H]2O)[C@H](O)[C@H](O)[C@H]1O.O [Rutin (hydrate)] :: FALSE
4. C[C@H](CCC(=O)O)[C@H]1CC(=O)[C@@]2(C)C3=C(C(=O)C[C@]12C)[C@@]1(C)CCC(=O)C(C)(C)[C@@H]1C[C@@H]3O [Lucideric acid A] :: FALSE
5. Cc1c(C)c2c(c(C)c1O)CC[C@@](C)(CCC[C@H](C)CCC[C@H](C)CCCC(C)C)O2 [α-Vitamin E] :: TRUE
6. Cl.O[C@H]1[C@H]2c3cc4c(cc3CN3CCC(=C[C@@H]1O)[C@H]23)OCO4 [Lycorine (hydrochloride)] :: TRUE
7. COc1cc2c(cc1O)C[C@H]1c3cc(O)c(OC)cc3CC[N+]1(C)C2.[Cl-] (stereo partly shown) [Phellodendrine (chloride)] :: TRUE
8. CC(C)[C@H](N)C(=O)OCC(CO)OCn1cnc2c(=O)nc(N)[nH]c21.Cl (stereo partly shown) [Valganciclovir (hydrochloride)] :: FALSE
9. CC(=O)O[C@@H]1C[C@@]23C[C@@]24CC[C@H](O[C@@H]2OC[C@@H](O)[C@H](O)[C@H]2O)C(C)(C)[C@@H]4CC[C@H]3[C@]2(C)C[C@@H]3O[C@@]4(C[C@@H](C)[C@@H]3[C@@]12C)OC[C@@]1(C)O[C@@H]41 [23-epi-26-Deoxyactein] :: FALSE

----------
Percentage of motility inhibition 0 h: recorded values
# Test system: C. elegans
# test-context: Table S2, C. elegans SS assay, 110 μM, 0 h, averages of 4 data points
property-label: Percentage of motility inhibition 0 h (%)

1) C=C1[C@@H]2CC[C@H]3[C@]4(C)C[C@H](O[C@H]5O[C@@H](CO)[C@H](OS(=O)(=O)[O-])[C@@H](OS(=O)(=O)[O-])[C@@H]5OC(=O)CC(C)C)C[C@@](C(=O)[O-])(C(=O)O)[C@H]4CC[C@]3(C2)[C@H]1O.[K+].[K+].[K+] [Carboxyatractyloside (tripotassium)] :: 23
2) Nc1ccc(C(=O)[O-])c(O)c1.O.O.[Na+] :: 24
3) Clc1ccc(C(Cn2ccnc2)OCc2c(Cl)cccc2Cl)c(Cl)c1.O=[N+]([O-])O (stereo not drawn) [Isoconazole (nitrate)] :: 17
4) CC(C)(C)OC(=O)N1CCC[C@H]1c1nc(C(=O)O)cs1 [Antibiotic‐5d] :: 0
5) O=c1ccoc2cc(O)cc(O)c12 [5,7‐Dihydroxychromone] :: 0
6) CO[C@]1(CC[C@@H](C)CO[C@@H]2O[C@H](CO)[C@@H](O)[C@H](O)[C@H]2O)O[C@H]2C[C@H]3[C@@H]4CC=C5C[C@@H](O[C@@H]6O[C@H](CO)[C@@H](O)[C@H](O[C@@H]7O[C@H](CO)[C@@H](O)[C@H](O)[C@H]7O)[C@H]6O[C@@H]6O[C@@H](C)[C@H](O)[C@@H](O)[C@H]6O)CC[C@]5(C)[C@H]4CC[C@]3(C)[C@H]2[C@@H]1C :: 0

----------
inhibition at 110 µM: recorded values
# System: C. elegans
# assay-protocol: microbe, parasite or virus in culture
# test-context: Caenorhabditis elegans, 0 h, read-out: Percentage of motility inhibition 0 h, Table S2, C. elegans SS assay, 110 μM, 0 h, averages of 4 data points
property-label: inhibition at 110 µM

1. C=C1C(=O)[C@@]23[C@H](O)C[C@@H]4C(C)(C)C(=O)CC[C@@]4(C)[C@@H]2CC[C@@H]1[C@H]3O :: 0%
2. COC(=O)[C@]1(C)CC[C@]2(C)CC[C@]3(C)C4=CC=C5C(=CC(=O)C(O)=C5C)[C@]4(C)CC[C@@]3(C)[C@@H]2C1 :: 29%
3. CC(C)=CCC[C@](C)(O[C@@H]1O[C@H](CO[C@@H]2OC[C@H](O)[C@H](O)[C@H]2O)[C@@H](O)[C@H](O)[C@H]1O)[C@H]1CC[C@]2(C)[C@@H]1[C@H](O)C[C@@H]1[C@@]3(C)CC[C@H](O)C(C)(C)[C@@H]3[C@@H](O)C[C@]12C [Ginsenoside F3] :: 2%

----------
# System: C. elegans
# assay-protocol: microbe, parasite or virus in culture
# test-context: Caenorhabditis elegans, 0 h, read-out: Percentage of motility inhibition 0 h, Table S2, C. elegans SS assay, 110 μM, 0 h, averages of 4 data points
property-label: inhibition at 110 µM (%)

1) CC12CCC(CC1=O)C2(C)C (centres unmarked) [Camphor] :: 0
2) CC/C=C\C/C=C\C/C=C\C/C=C\C/C=C\CCCC(=O)O [Eicosapentaenoic Acid] :: 0
3) COc1ccc2c(OC)c3ccoc3nc2c1OC [Skimmianine] :: 0
4) C[C@@H]1O[C@@H](Oc2c(-c3ccc(O)c(O)c3)oc3cc(O)cc(O)c3c2=O)[C@H](O)[C@H](O)[C@H]1O [Quercitrin] :: 4
5) COC(=O)[C@]12CCCC(C)(C)[C@@H]1CCc1cc(C(C)C)c(O)c(O)c12 [Methyl carnosate] :: 0

----------
# Tested on: C. elegans
# assay-protocol: microbe, parasite or virus in culture
# test-context: Caenorhabditis elegans, 24 h, read-out: Percentage of motility inhibition 24 h, Table S2, C. elegans SS assay, 110 μM, 24 h, averages of 4 data points
property-label: inhibition at 110 µM (%)

1) CC(C)C1=C[C@H]2[C@@H](CC[C@]2(C)O)[C@](C)(O)CC1 [Alismoxide] :: 0
2) COc1cc(NS(=O)(=O)c2ccc(N)cc2)nc(OC)n1 [Sulfadimethoxine] :: 3
3) CC(C1CC1)C(O)(Cn1cncn1)c1ccc(Cl)cc1 (stereo not shown) [Cyproconazole] :: 0
4) C[C@H]1C(=O)O[C@@H]2CC[N+]3([O-])CC=C(COC(=O)[C@](C)(O)[C@]1(C)O)[C@H]23 (stereo partly shown) [Monocrotaline N‐Oxide] :: 0

----------
# Test system: C. elegans
# test-context: Table S2, C. elegans SS assay, 110 μM, 0 h, averages of 4 data points
property-label: Percentage of motility inhibition 0 h (%)

1. CC1=CC[C@@H](C(C)(C)O)CC1 [(-)-α-Terpineol] :: 15
2. CC1(C)C=Cc2c(ccc(C(=O)/C=C/c3ccc(O)cc3)c2O)O1 [4‐Hydroxylonchocarpin] :: 11
3. CC/C=C\CC1=C(C)CCC1=O [cis‐Jasmone] :: 10
4. COc1cc2c(cc1O)[C@@H]1Cc3ccc(OC)c(OC)c3CN1CC2 [(‐)‐Isocorypalmine] :: 0
5. CC1OC(OC2C(Oc3cc(O)c4c(=O)cc(-c5ccc(O)cc5)oc4c3)OC(COC3OC(CO)C(O)C(O)C3O)C(O)C2O)C(O)C(O)C1O (centres unmarked) [Apigenin‐7‐O‐(2G‐rhamnosyl)gentiobioside] :: 10
6. C[C@@H]1C[C@@H]([C@@H](O)C(C)(C)O)O[C@H]2C[C@@]3(C)C(=C12)C[C@H](O)[C@H]1[C@@]2(C)CCC(=O)C(C)(C)[C@@H]2CC[C@@]13C [Alisol F] :: 0
7. COc1ccc(-c2cc(=O)c3c(O)cc(O[C@@H]4O[C@H](CO)[C@@H](O)[C@H](O)[C@H]4O)cc3o2)cc1O [Diosmetin‐7‐O‐β‐D‐glucopyranoside] :: 53
8. CC(C)C[C@H]1C(=O)O[C@H](Cc2ccc(N3CCOCC3)cc2)C(=O)N(C)[C@@H](CC(C)C)C(=O)O[C@H](C)C(=O)N(C)[C@@H](CC(C)C)C(=O)O[C@H](Cc2ccc(N3CCOCC3)cc2)C(=O)N(C)[C@@H](CC(C)C)C(=O)O[C@H](C)C(=O)N1C [Emodepside] :: 69
9. Cl.OC(c1cc(C(F)(F)F)nc2c(C(F)(F)F)cccc12)C1CCCCN1 (centres unmarked) [Mefloquine (hydrochloride)] :: 45
10. O=c1cc(-c2ccc(O)cc2)oc2c([C@@H]3OC[C@@H](O)[C@H](O)[C@H]3O)c(O)c([C@@H]3O[C@H](CO)[C@@H](O)[C@H](O)[C@H]3O)c(O)c12 [Vicenin 3] :: 15
11. Cl.N=C(N=C(N)N)N1CCOCC1 [Moroxydine (hydrochloride)] :: 13
12. COc1ccc(-c2coc3cc(O[C@@H]4O[C@H](CO)[C@@H](O)[C@H](O)[C@H]4O)ccc3c2=O)cc1O [Calycosin‐7‐O‐β‐D‐glucoside] :: 20
13. C=C(C)[C@@H]1CC[C@]2(C(=O)O)CC[C@]3(C)[C@H](CC[C@@H]4[C@@]5(C)CC[C@H](O)C(C)(C)[C@@H]5CC[C@]43C)[C@@H]12 [Betulinic acid] :: 22
14. CC(C)=CCC[C@]1(C)CC[C@]2(C)[C@H]3CC[C@@]4(C)[C@@H](CCC(=O)[C@@H]4C)[C@]3(C)CC[C@@]2(C)C1 [Shionone] :: 24
15. COc1cc2c(cc1OC)-c1cc3ccc4c(c3c[n+]1CC2)OCO4.[Cl-] [Epiberberine (chloride)] :: 22
16. C=C1C(=O)O[C@H]2[C@H]1CC[C@]1(C)O[C@@]13CC[C@@](C)(O)[C@H]23 [Epoxymicheliolide] :: 16
17. COc1ccc2cc3[n+](cc2c1OC)CCc1cc(O)c(O)cc1-3.[Cl-] [Demethyleneberberine (chloride)] :: 0
18. CC(=O)c1cc2c(CO)cc(O)cc2oc1=O [Armillarisin A] :: 0
19. C=C(CC[C@@H](C(=O)O)[C@H]1CC[C@@]2(C)C3=CC[C@H]4C(C)(C)[C@@H](OC(C)=O)CC[C@]4(C)C3=CC[C@]12C)C(C)C [Dehydroeburicoic acid monoacetate] :: 20
20. COc1cc(-c2coc3cc4c(c(O)c3c2=O)OCO4)cc(O)c1OC [Dichotomitin] :: 34
21. C[C@@H]1O[C@@H](Oc2cc(O)c3c(c2)O[C@H](c2ccc(O)c(O)c2)[C@@H](O)C3=O)[C@H](O)[C@H](O)[C@H]1O [Taxifolin 7‐O‐rhamnoside] :: 33
22. S=C=Nc1ccc(N=C=S)cc1 [p‐Phenylene diisothiocyanate] :: 2
23. O=c1cc(-c2ccc(O)cc2)oc2cc(O[C@@H]3O[C@H](CO)[C@@H](O)[C@H](O)[C@H]3O)cc(O)c12 [Apigenin 7‐glucoside] :: 10
24. CS/C=C/C(=O)NCCO[C@@H]1O[C@H](CO)[C@@H](O)[C@H](O)[C@H]1O [Entadamide‐A‐β‐D‐glucopyranoside] :: 24
25. CO/N=C(\C(=O)N[C@@H]1C(=O)N2C(C(=O)O)=C(Cn3ccc(=N)n3CCO)CS[C@H]12)c1csc(N)n1.O=S(=O)(O)O [Cefoselis (sulfate)] :: 8
26. CC(C)Nc1cccnc1N1CCN(C(=O)c2cc3cc(NS(C)(=O)=O)ccc3[nH]2)CC1.CS(=O)(=O)O [Delavirdine (mesylate)] :: 22
